So I've got a bunch of compounds here, and I need their ED50 values.
- Test system: Rattus norvegicus
- Assay info: Antiallergic activity after os administration using rat reaginic passive cutaneous anaphylaxis (PCA) test.
- Type: functional
- Condition notes: read-out: ID50 (the source's name)
Numbers only, in µmol/kg.

{"Compound": "CC1CC=C(Nc2ccc(O)cc2)c2ncc(C(=O)O)c(=O)n21 (centres undefined)", "Assayed system": "Rattus norvegicus", "ED50 [µmol/kg]": 100}
{"Compound": "CC1CC=C(Nc2cccc(C(=O)O)c2)c2ncc(C(=O)O)c(=O)n21 (centres undefined)", "Assayed system": "Rattus norvegicus", "ED50 [µmol/kg]": 92.6}
{"Compound": "CC1CC=C(Nc2ccc(C(=O)O)cc2)c2ncc(C(=O)O)c(=O)n21 (centres undefined)", "Assayed system": "Rattus norvegicus", "ED50 [µmol/kg]": 277}

Switching to the query record.
**Query** Which ED50 value belongs to CC1CC=C(Nc2ccc3ccccc3c2)c2ncc(C(=O)O)c(=O)n21 (centres undefined) ?
**Result** 30.8

* * *

- System: Rattus norvegicus
- Assay info: Antiallergic activity after intravenous administration using rat reaginic passive cutaneous anaphylaxis (PCA) test.
- Format: functional
- Condition notes: Rattus norvegicus, iv; read-out: ID50 (the source's name)
# label = Yes if ED50 < 1 µmol/kg else No

{"Molecule": "CC1CC=C(Nc2ccccc2C(=O)O)c2ncc(C(=O)O)c(=O)n21 (stereo not given)", "Assayed system": "Rattus norvegicus", "Group": "Yes"}
{"Molecule": "CC1CCC(C(=O)Nc2ccccc2)c2ncc(C(=O)O)c(=O)n21 (stereo not given)", "Assayed system": "Rattus norvegicus", "Group": "Yes"}
{"Molecule": "CC1CC=C(Nc2cccc(C(=O)O)c2)c2ncc(C(=O)O)c(=O)n21 (stereo not given)", "Assayed system": "Rattus norvegicus", "Group": "Yes"}

**Query** ED50 strictly < 1 µmol/kg for this molecule? CC1CCC(/C(S)=N/c2ccccc2)c2ncc(C(=O)O)c(=O)n21 (stereo not given)
**Result** No

**Query** Strictly below 1 µmol/kg in ED50? CC1CC=C(Nc2ccc(F)cc2)c2ncc(C(=O)O)c(=O)n21 (stereo not given)
**Result** No

**Query** # TODO verify ED50 < 1 µmol/kg strictly for this molecule: CCc1nc2n(c(=O)c1C(=O)O)C(C)CC/C2=N\O (stereo not given)
**Result** No

**Query** # check: ED50 < 1 µmol/kg for CC1CC/C(=N\N)c2ncc(C(=O)O)c(=O)n21 (stereo not given)
**Result** No

**Query** Hello, I'm reviewing records and need to know if ED50 of C[C@H]1CC=C(Nc2ccccc2)c2ncc(C(=O)O)c(=O)n21 is below 1 µmol/kg. Could you check?
**Result** No

**Query** Item CC1CCC(=NNc2ccccc2)c2ncc(C(=O)O)c(=O)n21 (stereo in doubt; 2) : ED50 beneath 1 µmol/kg, strictly?
**Result** Yes

**Query** Lab log: compare recorded ED50 with 1 µmol/kg; is it strictly lower for CCOC(=O)c1cnc2n(c1=O)C(C)CC/C2=N\O (stereo not given) ?
**Result** No

**Query** Confirm or reject: ED50 of CC(=O)c1cccc(NC2=CCC(C)n3c2ncc(C(=O)O)c3=O)c1 (stereo not given) lies strictly below 1 µmol/kg
**Result** Yes

**Query** Lab log: compare recorded ED50 with 1 µmol/kg; is it strictly lower for CC1CC=C(Nc2ccc(C(=O)O)cc2)c2ncc(C(=O)O)c(=O)n21 (stereo not given) ?
**Result** No

**Query** Record C[C@@H]1CC=C(Nc2ccccc2)c2ncc(C(=O)O)c(=O)n21 : is its ED50 strictly below 1 µmol/kg?
**Result** No
